These data points were gathered from the supplement of paper PMC10567573.

- Assay Name: protein stability index of a GFP-peptide fusion (GPS, HEK-293T) (PSI 1-6); higher = more stable;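 further: 24-mer peptide tiles fused after GFP, lentivirally expressed, FACS-sorted into six equal bins by GFP/DsRed ratio, decoded by Illumina sequencing, PSI is the read-weighted mean bin number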
- Protocol Conditions: treatment: MLN4924 1 uM, 8 h; c terminus: a fixed tail appended
Record form. Attribute: protein stability index. Fill in for each entry.

-- ask // protein stability index lookup, key: TEGFTSGRHYWEVEVGDKTHWAVG [TRIM39]
-- reply 2.93

-- ask What about RDGYGMTPLLAASVTGHTNIVEYL [FEM1A] ?
-- reply 2.93

-- ask What about MNSLVSWQLLLFLCATHFGEPLEK [KISS1] ?
-- reply 3.07

----------
Record form. Attribute: protein stability index. Fill in for each entry.
- Assay Name: protein stability index of a GFP-peptide fusion (GPS, HEK-293T) (PSI 1-6); higher = more stable
- Protocol Conditions: treatment: DMSO; c terminus: a fixed tail appended

-- ask // protein stability index lookup, key: SSLVWLFSQLYLYSFISLFIYMVL [MCOLN1]
-- reply 3.02

-- ask What about EVALDKGCSQFRLAVLDWNQRAMD [SAT2] ?
-- reply 2.94

-- ask What about YQQLCIYWTKYYDFKNPIIEKYLR [OAS1] ?
-- reply 2.92

----------
- Assay Name: protein stability index of a GFP-peptide fusion (GPS, HEK-293T) (PSI 1-6); higher = more stable
- Protocol Conditions: treatment: MLN4924 1 uM, 8 h; c terminus: a fixed tail appended
Observation Type: protein stability index
Please give only the number in your answer, with no unit.

-- ask // protein stability index lookup, key: LWVEERALLEGEKALWEDKTSLWE [CCDC70]
-- reply 3

-- ask What about TRWLNSGRGDEASEEGQNGSSPKS [ADD1] ?
-- reply 5.44

-- ask What about IRESDPEQAPAPGEATAAPAPLCG [TBX6] ?
-- reply 5.31

-- ask What about QYNRPISDFLTLHSIIISLVEAGA [FEM1B] ?
-- reply 2.36

-- ask What about TAEMARVLTDSNHVPLQRLSLLVH [FBXO33] ?
-- reply 2.79

-- ask What about VSSEDSFVCQCFEGYILREDGKTC [MATN2] ?
-- reply 3.08

-- ask What about QDSTRTVGERLQDTHSWKSELQRE [TEKT4] ?
-- reply 4.96

-- ask What about DHVDLSLSCTLVPRSGEQAEGSPG [CDKN1A] ?
-- reply 5.08

----------
- Assay Name: protein stability index of a GFP-peptide fusion (GPS, HEK-293T) (PSI 1-6); higher = more stable
- Protocol Conditions: treatment: DMSO; c terminus: a fixed tail appended
Decide using protein stability index: a value greater than or equal to 4 is 1, a smaller one is 0.

-- ask Exam item: decide whether the reported protein stability index for ASAAAATAAFTTAKAAALSTKTPA [SPAG8] is at least 4.
-- reply 1

-- ask What about TRRRAVGWWKRLFTLKEEKPKMYF [ARL6IP1] ?
-- reply 0

-- ask What about VINPMLNPIIYSFRNPDVQSAIWR [OR3A1] ?
-- reply 0

-- ask What about ERSARYQYFVVDPMAEYNMPQYIL [PTPRD] ?
-- reply 0

-- ask What about PHVIVSTTGPNPFTTLTDRELEEY [ADD1] ?
-- reply 1

-- ask What about YLCKRVPHTVLDRQLLCLIDYYES [CEP70] ?
-- reply 0

-- ask What about QLSSFGSVDWLSQSSCSGPTHTPR [VENTX] ?
-- reply 0

-- ask What about SPTDIQDSSIIRTTQDLFAINRDT [RHOBTB3] ?
-- reply 1

-- ask What about VISPMYQLHKPLAEGTPRSNHSAQ [IKZF1] ?
-- reply 0

-- ask What about QLKRQKRDYIHSLKLLNVLEEYIT [FAM9B] ?
-- reply 0

-- ask What about EAEVTILFYFFLYQYCSIHCSDRK [CSTF3] ?
-- reply 0

-- ask What about LEQCSASIEVGGSVNFDGETIEGA [FEM1C] ?
-- reply 1

-- ask What about ETDHLSMEEEDPMPRQISRQSSVT [TPRG1] ?
-- reply 1

-- ask What about CEIQVRTLASAGGPDNLVLLNPEK [ADD1] ?
-- reply 0

-- ask What about YPHTRIQSLVSILRTTVHHAFPVV [CLCN6] ?
-- reply 0

-- ask What about AGQLMGFFKGIDQDIERGVQSEIF [LYSMD4] ?
-- reply 0

-- ask What about AQTLAYGDMNHEWIGNEWLPSLGL [PPFIA4] ?
-- reply 0

-- ask What about QAQPGEATSGPPGIQPGQEPPVTM [PALM] ?
-- reply 1

-- ask What about TEGFTSGRHYWEVEVGDKTHWAVG [TRIM39] ?
-- reply 0

-- ask What about AGLDWQSLGQMKELGVIFYNCSCL [PLD5] ?
-- reply 0

-- ask What about TVYNEMDKNRCELLSFLLLMDYIG [EDNRA] ?
-- reply 0

-- ask What about APHTPPLPRRPRKGSSELGFPRVA [RNF208] ?
-- reply 1

-- ask What about AKFDFLTRKHHCRRCGKCFCDRCC [ZFYVE21] ?
-- reply 0

-- ask What about DKITGQSLGYGFVNYSDPNDADKA [ELAVL3] ?
-- reply 1

-- ask What about IVVIPGKVEEVSLPEQVDIIISEP [CARM1] ?
-- reply 0

-- ask What about NLAFGRRCEELEDARYKLHHHLHK [TEKT4] ?
-- reply 0

-- ask What about AGRGGAAGTAGVGETGSGDQAGGE [MYOZ1] ?
-- reply 1

-- ask What about RGRFGELLLLLPTLQSITWQMIEQ [HNF4A] ?
-- reply 0

-- ask What about KGPLVPFPNQKSEAAEPPKTPPSS [KMT5A] ?
-- reply 1

-- ask What about NQEILLPGGITSHQLLGLFPSTSY [TNXB] ?
-- reply 0

-- ask What about IRESDPEQAPAPGEATAAPAPLCG [TBX6] ?
-- reply 1
